System: HT29 colon
ASSAY OVERVIEW: NCI tumour cell line growth inhibition, 48 h
*1 amine or outer side, *2 acyl side, *3 side chain or, on linkers, in order; H or OH if unused. Where a SMILES comes first, the peptide text is derived from it. Bridges are numbered along the chain shown (N, C = ends). Roman numbers before positions name the chains, in order. X23 = CCCCCCCCCCCCCCC(=O)NC(CCCCN[*:2])C(=O)CN1CCCC1C(=O)[*:1]
Below, each entry is listed alongside its reported GI50.
METRIC NAME: GI50

Nc1cccc2c1CN(C1CCC(=O)NC1=O)C2=O (stereo unspecified)	> 100 µM
COc1ccc(Oc2nc(Nc3ccc(N4CCOCC4)cc3)ncc2NC(=O)Nc2cc(OC)cc(OC)c2)cc1	1.42 µM
NS(=O)(=O)c1cccc(-c2cc3ccncc3cc2OCc2ccccc2)c1	6.05 µM
Nc1nccc2c1ncn2C1C=C(CO)C(O)C1O (stereo unspecified)	0.816 µM
CCCCCCCCCCCCCCC(=O)NC(CCCCNC(=O)C1CCCN1C(=O)C(CCCCN)NC(=O)C(CCCCN)NC(=O)C(CCCCN)NC(=O)C(CCCNC(=N)N)NC(=O)C(CCCCN)NC(=O)C(N)C(C)C)C(=O)CN1CCCC1C(=O)NCC(=O)NC(Cc1ccccc1)C(=O)N1CCCC1C(=O)NC(CO)C(=O)NC(Cc1ccc(O)cc1)C(=O)NC(CCCCN)C(=O)NC(CC(C)C)C(=O)NC(CCCNC(=N)N)C(=O)N1CCCC1C(=O)NCC(N)=O (stereo unspecified) (I: GFPSYKLRPG-NH2 / II: H-VKRKKKP; linker I:N-II:C via X23; configuration not given here)	24.7 µM
O=c1[nH]cc(CO)c(=O)[nH]1	> 100 µM

Just for reference, PubChem BioAssay (NCI) is where these values come from.
